# test_details: Determination of lipophilicity by RP-HPLC (log k)
# measurement_parameters: RP-HPLC capacity factor, MeOH 70% / H2O 30%, C18, 30 °C
Property: Log k; scope: individual compounds

- compound: "COc1ccc(CNC(=O)c2nccnc2NCc2ccc(OC)cc2)cc1"
  Log k: 0.981
- compound: "Cc1ccc(CNC(=O)c2nccnc2NCc2ccc(C)cc2)cc1"
  Log k: 1.517
- compound: "O=C(NCc1ccccc1F)c1nccnc1Cl"
  Log k: "−0.154"
- compound: "O=C(NCc1ccccc1Cl)c1nccnc1Cl"
  Log k: 0.033
- compound: "O=C(NCc1ccccc1Cl)c1nccnc1NCc1ccccc1Cl"
  Log k: 1.542
- compound: "COc1ccc(CNC(=O)c2nccnc2Cl)c(OC)c1"
  Log k: "−0.095"
- compound: "O=C(NCc1ccc(C(F)(F)F)cc1)c1nccnc1NCc1ccc(C(F)(F)F)cc1 [Compound 13a]"
  Log k: 1.593
- compound: "O=C(NCc1ccc(Cl)cc1)c1nccnc1Cl"
  Log k: 0.082
- compound: "O=C(NCc1ccc(F)cc1)c1nccnc1NCc1ccc(F)cc1 [Compound 11a]"
  Log k: 1.058
- compound: "Cc1ccccc1CNC(=O)c1nccnc1Cl"
  Log k: 0.009
- compound: "Cc1ccccc1CNC(=O)c1nccnc1NCc1ccccc1C"
  Log k: 1.459
- compound: "O=C(NCc1ccc(F)cc1)c1nccnc1Cl"
  Log k: "−0.139"
- compound: "O=C(NCc1ccccc1F)c1nccnc1NCc1ccccc1F [Compound 10a]"
  Log k: 1.108
- compound: "O=C(NCc1ccc(Cl)cc1)c1nccnc1NCc1ccc(Cl)cc1"
  Log k: 1.533
- compound: "O=C(NCc1ccc(Cl)c(Cl)c1)c1nccnc1Cl"
  Log k: 0.309
- compound: "O=C(NCc1cccc(C(F)(F)F)c1)c1nccnc1Cl"
  Log k: 0.110
- compound: "O=C(NCc1ccc(C(F)(F)F)cc1)c1nccnc1Cl"
  Log k: 0.145
- compound: "Cc1ccc(CNC(=O)c2nccnc2Cl)cc1"
  Log k: 0.033
- compound: "O=C(NCc1cccc(Cl)c1)c1nccnc1Cl"
  Log k: 0.060
- compound: "COc1ccc(CNC(=O)c2nccnc2Cl)cc1"
  Log k: "−0.202"
- compound: "O=C(NCc1cccc(Cl)c1)c1nccnc1NCc1cccc(Cl)c1"
  Log k: 1.515
- compound: "O=C(NCc1ccc(Cl)c(Cl)c1)c1nccnc1NCc1ccc(Cl)c(Cl)c1"
  Log k: 1.997
- compound: "O=C(NCc1ccc(Cl)cc1Cl)c1nccnc1Cl"
  Log k: 0.375

###

Property: MIC; scope: individual compounds
# System: Mycobacterium smegmatis CCM 4622 (ATCC 607)

- compound: "O=C(NCc1ccccc1Cl)c1nccnc1Cl"
  MIC: "250 µg/mL"
- compound: "O=C(NCc1cccc(C(F)(F)F)c1)c1nccnc1Cl"
  MIC: "125 µg/mL"
- compound: "O=C(NCc1ccc(C(F)(F)F)cc1)c1nccnc1Cl"
  MIC: "> 500 µg/mL"
- compound: "O=C(O)c1cn(C2CC2)c2cc(N3CCNCC3)c(F)cc2c1=O [CPX, ciprofloxacin, reference compound]"
  MIC: "0.098 to 0.195 µg/mL"
- compound: "NNC(=O)c1ccncc1 [INH, isoniazid, reference compound]"
  MIC: "7.81 to 15.6 µg/mL"

###

Property: MIC; scope: individual compounds
# Test system: Mycobacterium smegmatis CCM 4622 (ATCC 607)
outcome_measure: MIC (µg/mL)

- compound: "O=C(NCc1ccc(Cl)c(Cl)c1)c1nccnc1Cl"
  op: "="
  numeric_result: 250
- compound: "Cc1ccc(CNC(=O)c2nccnc2NCc2ccc(C)cc2)cc1"
  op: ">"
  numeric_result: 250
- compound: "Cc1ccccc1CNC(=O)c1nccnc1NCc1ccccc1C"
  op: ">"
  numeric_result: 500
- compound: "O=C(NCc1ccc(Cl)cc1Cl)c1nccnc1Cl"
  op: "="
  numeric_result: 125
- compound: "O=C(NCc1ccc(C(F)(F)F)cc1)c1nccnc1NCc1ccc(C(F)(F)F)cc1 [Compound 13a]"
  op: ">"
  numeric_result: 500
- compound: "O=C(NCc1ccccc1F)c1nccnc1NCc1ccccc1F [Compound 10a]"
  op: ">"
  numeric_result: 500
- compound: "O=C(NCc1ccccc1F)c1nccnc1Cl"
  op: "="
  numeric_result: 125
- compound: "O=C(NCc1ccc(F)cc1)c1nccnc1Cl"
  op: "="
  numeric_result: 250
- compound: "O=C(NCc1cccc(Cl)c1)c1nccnc1NCc1cccc(Cl)c1"
  op: ">"
  numeric_result: 500
- compound: "COc1ccc(CNC(=O)c2nccnc2NCc2ccc(OC)cc2)cc1"
  op: ">"
  numeric_result: 500

###

// values below are MIC; system is Mycobacterium smegmatis CCM 4622 (ATCC 607)
outcome_measure: MIC (µg/mL)

- molecule: "COc1ccc(CNC(=O)c2nccnc2Cl)c(OC)c1 [Compound 4]"
  outcome_measure: "MIC"
  op: ">"
  numeric_result: 500
- molecule: "O=C(NCc1ccc(Cl)cc1)c1nccnc1Cl [Compound 7]"
  outcome_measure: "MIC"
  op: "="
  numeric_result: 500
- molecule: "COc1ccc(CNC(=O)c2nccnc2Cl)cc1 [Compound 3]"
  outcome_measure: "MIC"
  op: "="
  numeric_result: 125

###

# test_details: Cytotoxicity assay, CellTiter 96 Aqueous One Solution
# Type: cell-based
# measurement_parameters: human; HepG2 cells, 24 h exposure
Property: IC50 at 24 h; scope: individual molecules
outcome_measure: IC50 at 24 h

- smiles_string: "O=C(NCc1ccc(Cl)c(Cl)c1)c1nccnc1NCc1ccc(Cl)c(Cl)c1"
  result: "> 100 µM"
- smiles_string: "O=C(NCc1ccccc1Cl)c1nccnc1Cl"
  result: "847 µM"
- smiles_string: "Cc1ccccc1CNC(=O)c1nccnc1NCc1ccccc1C"
  result: "> 250 µM"
- smiles_string: "COc1ccc(CNC(=O)c2nccnc2NCc2ccc(OC)cc2)cc1"
  result: "> 100 µM"

###

// values below are MIC; system is Mycobacterium smegmatis CCM 4622 (ATCC 607)
outcome_measure: MIC

- compound: "O=C(NCc1cccc(Cl)c1)c1nccnc1Cl [Compound 6]"
  target_under_test: "Mycobacterium smegmatis CCM 4622 (ATCC 607)"
  result: "125 µg/mL"
- compound: "CO[C@H]1/C=C/O[C@@]2(C)Oc3c(C)c(O)c4c(O)c(c(/C=N/N5CCN(C)CC5)c(O)c4c3C2=O)NC(=O)/C(C)=C\\C=C\\[C@H](C)[C@H](O)[C@@H](C)[C@@H](O)[C@@H](C)[C@H](OC(C)=O)[C@@H]1C [RIF, rifampicin, reference compound]"
  target_under_test: "Mycobacterium smegmatis CCM 4622 (ATCC 607)"
  result: "0.78 to 1.56 µg/mL"
- compound: "O=C(NCc1ccc(F)cc1)c1nccnc1NCc1ccc(F)cc1 [Compound 11a]"
  target_under_test: "Mycobacterium smegmatis CCM 4622 (ATCC 607)"
  result: "> 500 µg/mL"
- compound: "O=C(NCc1ccccc1Cl)c1nccnc1NCc1ccccc1Cl [Compound 5a]"
  target_under_test: "Mycobacterium smegmatis CCM 4622 (ATCC 607)"
  result: "> 500 µg/mL"
- compound: "Cc1ccc(CNC(=O)c2nccnc2Cl)cc1 [Compound 2]"
  target_under_test: "Mycobacterium smegmatis CCM 4622 (ATCC 607)"
  result: "> 500 µg/mL"
- compound: "O=C(NCc1ccc(Cl)cc1)c1nccnc1NCc1ccc(Cl)cc1 [Compound 7a]"
  target_under_test: "Mycobacterium smegmatis CCM 4622 (ATCC 607)"
  result: "> 250 µg/mL"
- compound: "O=C(NCc1ccc(Cl)c(Cl)c1)c1nccnc1NCc1ccc(Cl)c(Cl)c1 [Compound 9a]"
  target_under_test: "Mycobacterium smegmatis CCM 4622 (ATCC 607)"
  result: "> 500 µg/mL"
- compound: "Cc1ccccc1CNC(=O)c1nccnc1Cl [Compound 1]"
  target_under_test: "Mycobacterium smegmatis CCM 4622 (ATCC 607)"
  result: "250 µg/mL"

###

# test_details: Cytotoxicity assay, CellTiter 96 Aqueous One Solution
# Type: cell-based
# measurement_parameters: human, HepG2 cells; HepG2 IC50 / MIC S. aureus; read-out: selectivity index, SI = IC50/MIC

- smiles_string: "O=C(NCc1ccccc1Cl)c1nccnc1Cl"
  selectivity ratio at 24 h: 108
